- Test system: PC-3
- procedure-text: Cytotoxicity against human PC3 cells after 48 hrs
- Assay type: functional
- cond: PC-3, 48 h
parameter: log10(GI50) (log10 of the value in µM)
Log scale reminder: GI50 in µM, then log10 taken.

Requested read-out: log10(GI50). Entry: COc1cc(O)cc(O)c1C(=O)/C=C/c1ccc2c(c1)OCO2
1.27

Using the record for C=CCOc1cc(OC)c(C(=O)/C=C/c2ccc3c(c2)OCO3)c(OCC=C)c1 , report its log10(GI50).
0.98

Endpoint output: log10(GI50) of COc1ccc(/C=C/C(=O)c2c(O)cc(OC)cc2OC)cc1 [FLAVOKAWAIN A] . Value?
1.18

Fill in the blank: the reported log10(GI50) of COc1ccc(CCC(=O)c2c(O)cc(O)cc2OC)cc1 is ____.
1.78

Please give the measured log10(GI50) for this compound: C=CCOc1cc(OC)c(C(=O)/C=C/c2ccc(OC)cc2)c(OCC=C)c1
1.26

So what does the record say about log10(GI50) for O=c1[nH]cc(F)c(=O)[nH]1 [FLUOROURACIL] ?
1.16

Returns the measured log10(GI50) for the input compound. Input: COc1ccc(/C=C/C(=O)c2c(O)cc(O)cc2OC)cc1
1.29

Record request: log10(GI50) value, item COc1cc(O)c(C(=O)CCc2ccc3c(c2)OCO3)c(OC)c1
1.59

Which log10(GI50) is listed for COc1cc(O)c(C(=O)/C=C/c2ccc3c(c2)OCO3)c(OC)c1 ?
2.07
